# TARGET ENTITY: TC-PTP (Homo sapiens, UniProt P17706)
# Sequence (P17706 1-415): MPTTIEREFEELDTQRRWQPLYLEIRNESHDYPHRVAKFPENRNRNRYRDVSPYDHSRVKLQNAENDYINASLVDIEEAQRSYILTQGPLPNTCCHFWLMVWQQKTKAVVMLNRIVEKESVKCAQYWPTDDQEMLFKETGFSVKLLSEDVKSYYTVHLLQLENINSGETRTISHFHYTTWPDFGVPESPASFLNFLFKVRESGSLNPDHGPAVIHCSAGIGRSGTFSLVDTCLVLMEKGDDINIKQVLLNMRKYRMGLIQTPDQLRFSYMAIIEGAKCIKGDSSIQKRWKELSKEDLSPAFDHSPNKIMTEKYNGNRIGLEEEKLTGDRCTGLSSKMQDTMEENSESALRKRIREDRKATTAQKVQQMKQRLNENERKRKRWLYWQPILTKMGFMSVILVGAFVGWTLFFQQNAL
# TEST DETAILS: PTP activity assay with pNPP substrate (IC50, Ki, mode of inhibition)
# ASSAY SETUP: TC-PTP catalyzed pNPP hydrolysis
REPORTED PROPERTY: pKi
Numbers only, as −log10 of the molar value.

Returns the measured pKi for the input compound. Input: COc1cc(CC(=O)N[C@@H](Cc2ccccc2)C(=O)N[C@@H](Cc2ccc(C(F)(F)P(=O)(O)O)cc2)C(=O)N[C@@H](CCCCNC(=O)c2ccc(C)c(Br)c2)C(N)=O)ccc1O [Example 7]
8.44

###

# TARGET ENTITY: TC-PTP (Homo sapiens, UniProt P17706)
# TEST DETAILS: PTP activity assay with pNPP substrate (IC50, Ki, mode of inhibition)
# Assay type: biochemical
# ASSAY SETUP: pNPP 2 mM, pH 7.0, 25° C.; read-out: IC50, nM TC-PTP
*1 amine or outer side, *2 acyl side, *3 side chain or, on linkers, in order; H or OH if unused. Where a SMILES comes first, the peptide text is derived from it. [ ]: non-standard residue; d: D form. The star is where a group is joined. NHBn(4-(4-Me-thiazol-5-yl)) = Cc1ncsc1-c1ccc(CN*)cc1; NHCH2(1,3-C6H4)CH2CO = O=C(Cc1cccc(CN[*:1])c1)[*:2]; F2Pmp = N[C@@H](Cc1ccc(C(F)(F)P(=O)(O)O)cc1)C(=O)O; Phenylacetyl(4-OH,3-OMe) = COc1cc(CC(=O)*)ccc1O; Benzoyl(3-Br,4-Me) = Cc1ccc(C(=O)*)cc1Br; X1 = Cc1ncsc1-c1ccc([C@H](C)N*)cc1; cisHyp = O=C(O)[C@@H]1C[C@H](O)CN1; Hyp = O=C(O)[C@@H]1C[C@@H](O)CN1; X2 = O=C(CCN1CCN([*:1])CC1)[*:2]; Tle = CC(C)(C)[C@H](N)C(=O)O; PEG1 = NCCOCCC(=O)O
REPORTED PROPERTY: IC50
Include the unit after the number when you answer.

# annotated cases, reported IC50 shown
- MOLECULE: "COc1cc(CC(=O)N[C@@H](Cc2ccccc2)C(=O)N[C@@H](Cc2ccc(C(F)(F)P(=O)(O)O)cc2)C(=O)N[C@@H](CCCCNC(=O)c2ccc(C)c(Br)c2)C(=O)NCc2cccc(CC(=O)N[C@H](C(=O)N3C[C@@H](O)C[C@H]3C(=O)N[C@@H](C)c3ccc(-c4scnc4C)cc3)C(C)(C)C)c2)ccc1O [cis-47] ({Phenylacetyl(4-OH,3-OMe)}-F[F2Pmp]K(Benzoyl(3-Br,4-Me))[NHCH2(1,3-C6H4)CH2CO][Tle][cisHyp]-X1)"
  TARGET ENTITY: "TC-PTP (Homo sapiens, UniProt P17706)"
  IC50: "29.7 nM"
- MOLECULE: "COc1cc(CC(=O)N[C@@H](Cc2ccccc2)C(=O)N[C@@H](Cc2ccc(C(F)(F)P(=O)(O)O)cc2)C(=O)N[C@@H](CCCCNC(=O)c2ccc(C)c(Br)c2)C(=O)NCc2cccc(CC(=O)N[C@H](C(=O)N3C[C@H](O)C[C@H]3C(=O)NCc3ccc(-c4scnc4C)cc3)C(C)(C)C)c2)ccc1O [Compound 48] ({Phenylacetyl(4-OH,3-OMe)}-F[F2Pmp]K(Benzoyl(3-Br,4-Me))[NHCH2(1,3-C6H4)CH2CO][Tle][Hyp]-{NHBn(4-(4-Me-thiazol-5-yl))})"
  TARGET ENTITY: "TC-PTP (Homo sapiens, UniProt P17706)"
  IC50: "11.5 nM"
- MOLECULE: "COc1cc(CC(=O)N[C@@H](Cc2ccccc2)C(=O)N[C@@H](Cc2ccc(C(F)(F)P(=O)(O)O)cc2)C(=O)N[C@@H](CCCCNC(=O)c2ccc(C)c(Br)c2)C(=O)NCc2cccc(CC(=O)N[C@H](C(=O)N3C[C@H](O)C[C@H]3C(=O)N[C@@H](C)c3ccc(-c4scnc4C)cc3)C(C)(C)C)c2)ccc1O [Compound 47] ({Phenylacetyl(4-OH,3-OMe)}-F[F2Pmp]K(Benzoyl(3-Br,4-Me))[NHCH2(1,3-C6H4)CH2CO][Tle][Hyp]-X1)"
  TARGET ENTITY: "TC-PTP (Homo sapiens, UniProt P17706)"
  IC50: "30.1 nM"
- MOLECULE: "COc1cc(CC(=O)N[C@@H](Cc2ccccc2)C(=O)N[C@@H](Cc2ccc(C(F)(F)P(=O)(O)O)cc2)C(=O)N[C@@H](CCCCNC(=O)c2ccc(C)c(Br)c2)C(=O)N2CCN(CCC(=O)N[C@H](C(=O)N3C[C@H](O)C[C@H]3C(=O)NCc3ccc(-c4scnc4C)cc3)C(C)(C)C)CC2)ccc1O [Compound 56] ({Phenylacetyl(4-OH,3-OMe)}-F[F2Pmp]K(Benzoyl(3-Br,4-Me))[X2][Tle][Hyp]-{NHBn(4-(4-Me-thiazol-5-yl))})"
  TARGET ENTITY: "TC-PTP (Homo sapiens, UniProt P17706)"
  IC50: "12 nM"

Entry COc1cc(CC(=O)N[C@@H](Cc2ccccc2)C(=O)N[C@@H](Cc2ccc(C(F)(F)P(=O)(O)O)cc2)C(=O)N[C@@H](CCCCNC(=O)c2ccc(C)c(Br)c2)C(=O)NCCOCCC(=O)N[C@H](C(=O)N2C[C@H](O)C[C@H]2C(=O)N[C@@H](C)c2ccc(-c3scnc3C)cc2)C(C)(C)C)ccc1O [Compound 27] ({Phenylacetyl(4-OH,3-OMe)}-F[F2Pmp]K(Benzoyl(3-Br,4-Me))[PEG1][Tle][Hyp]-X1) : reported IC50 = ?
6.7 nM
